- TESTED_SYSTEM: MEK1 activated ERK1 (Homo sapiens (Human), UniProt P27361)
- Sequence (P27361 whole entry): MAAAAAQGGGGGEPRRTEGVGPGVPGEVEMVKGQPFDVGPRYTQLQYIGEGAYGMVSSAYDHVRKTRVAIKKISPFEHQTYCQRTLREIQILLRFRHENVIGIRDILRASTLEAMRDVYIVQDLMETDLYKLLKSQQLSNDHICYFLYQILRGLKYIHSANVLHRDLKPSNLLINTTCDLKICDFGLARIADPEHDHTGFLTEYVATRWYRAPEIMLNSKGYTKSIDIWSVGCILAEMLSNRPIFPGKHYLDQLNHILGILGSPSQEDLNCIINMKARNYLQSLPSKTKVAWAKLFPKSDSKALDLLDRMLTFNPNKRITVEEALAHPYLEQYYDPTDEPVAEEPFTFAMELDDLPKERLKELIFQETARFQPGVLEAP
- EXPERIMENTAL_DETAILS: Omnia continuous-read kinase assay for potency against MEK1 activated ERK1
- Assay type: biochemical
- ASSAY_CONTEXT: MEK1 activated ERK1, WT, ATP at KM
Below, each of the molecules is paired with its reported IC50 value.

MOLECULE: CC(C)S(=O)(=O)c1ccccc1Nc1nc(N[C@H]2CCCN(C(=O)CO)C2)ncc1C(F)(F)F [Compound I-310]
TESTED_SYSTEM: MEK1 activated ERK1 (Homo sapiens (Human), UniProt P27361)
IC50: < 100 nM
//
MOLECULE: C=CC(=O)Nc1ccccc1Nc1nc(N[C@H]2CCCN(C(=O)C3CC3)C2)ncc1Cl [Compound I-136]
TESTED_SYSTEM: MEK1 activated ERK1 (Homo sapiens (Human), UniProt P27361)
IC50: < 100 nM
//
MOLECULE: C=CC(=O)Nc1ccccc1Nc1nc(N[C@H]2CCCN(C=O)C2)ncc1C(F)(F)F [Compound I-9]
TESTED_SYSTEM: MEK1 activated ERK1 (Homo sapiens (Human), UniProt P27361)
IC50: < 100 nM
//
MOLECULE: C=CS(=O)(=O)N[C@@H]1CCCC[C@H]1Nc1nc(N[C@H]2CCCN(C(=O)CO)C2)ncc1C(F)(F)F [Compound I-36]
TESTED_SYSTEM: MEK1 activated ERK1 (Homo sapiens (Human), UniProt P27361)
IC50: < 100 nM
//
MOLECULE: C=CC(=O)Nc1cc(C)ccc1Nc1nc(Nc2cc(C(N)=O)ccc2C)ncc1Cl [Compound I-229]
TESTED_SYSTEM: MEK1 activated ERK1 (Homo sapiens (Human), UniProt P27361)
IC50: < 100 nM
//
MOLECULE: COc1cc(N2CCOCC2)ccc1Nc1ncc(N)c(Nc2ccccc2N)n1 [Compound I-312]
TESTED_SYSTEM: MEK1 activated ERK1 (Homo sapiens (Human), UniProt P27361)
IC50: > 1000 nM
//
MOLECULE: C=CC(=O)Nc1ccccc1Nc1nc(Nc2cc(OC)nc(OCCOC)c2)ncc1C(F)(F)F [Compound I-283]
TESTED_SYSTEM: MEK1 activated ERK1 (Homo sapiens (Human), UniProt P27361)
IC50: < 100 nM
//
MOLECULE: C=CC(=O)Nc1ccccc1Nc1nc(N[C@H]2CC[C@@H](F)CC2)ncc1C(F)(F)F [Compound I-110]
TESTED_SYSTEM: MEK1 activated ERK1 (Homo sapiens (Human), UniProt P27361)
IC50: 101 to 500 nM

----------
Listing: pIC50 of selected compounds
- TESTED_SYSTEM: MEK1 activated ERK1 (Homo sapiens (Human), UniProt P27361)
- EXPERIMENTAL_DETAILS: Omnia continuous-read kinase assay for potency against MEK1 activated ERK1
- Assay type: biochemical
- ASSAY_CONTEXT: MEK1 activated ERK1, WT, ATP at KM
pIC50: −log10 of the molar value.

STRUCTURE: C=CC(=O)Nc1cc(C)ccc1Nc1nc(Nc2cnnc(OC)c2)ncc1C(F)(F)F
TESTED_SYSTEM: MEK1 activated ERK1 (Homo sapiens (Human), UniProt P27361)
pIC50: < 6.00
--
STRUCTURE: C=CC(=O)Nc1ccccc1Nc1nc(Nc2cc(CO)c(F)cc2C)ncc1C(F)(F)F
TESTED_SYSTEM: MEK1 activated ERK1 (Homo sapiens (Human), UniProt P27361)
pIC50: > 7.00
--
STRUCTURE: C=CC(=O)Nc1ccccc1Nc1nc(N[C@@H]2CCN(C(=O)CO)C2)ncc1C(F)(F)F
TESTED_SYSTEM: MEK1 activated ERK1 (Homo sapiens (Human), UniProt P27361)
pIC50: < 6.00
--
STRUCTURE: C=CC(=O)Nc1ccccc1Nc1nc(Nc2cc(C(=O)NOC)ccc2C)ncc1Cl
TESTED_SYSTEM: MEK1 activated ERK1 (Homo sapiens (Human), UniProt P27361)
pIC50: > 7.00
--
STRUCTURE: C=CC(=O)Nc1ccccc1Nc1nc(Nc2cc(C(N)=O)ccc2C#N)ncc1Cl
TESTED_SYSTEM: MEK1 activated ERK1 (Homo sapiens (Human), UniProt P27361)
pIC50: > 7.00
--
STRUCTURE: C=CC(=O)Nc1ccccc1Nc1nc(Nc2ccnc(NC)c2)ncc1C(F)(F)F
TESTED_SYSTEM: MEK1 activated ERK1 (Homo sapiens (Human), UniProt P27361)
pIC50: < 6.00
--
STRUCTURE: C=CC(=O)N(C)c1ccccc1Nc1nc(Nc2cc(C(=O)NOC)ccc2C#N)ncc1Cl
TESTED_SYSTEM: MEK1 activated ERK1 (Homo sapiens (Human), UniProt P27361)
pIC50: < 6.00
--
STRUCTURE: C=CC(=O)Nc1ccccc1CNc1nc(N[C@H]2CCCN(C(=O)CO)C2)ncc1C(F)(F)F
TESTED_SYSTEM: MEK1 activated ERK1 (Homo sapiens (Human), UniProt P27361)
pIC50: < 6.00
